The measured values listed here are drawn from ChEMBL document CHEMBL5291721.

MEASURED ON: Muscarinic acetylcholine receptor M1 (Homo sapiens)
Sequence (P11229 whole entry): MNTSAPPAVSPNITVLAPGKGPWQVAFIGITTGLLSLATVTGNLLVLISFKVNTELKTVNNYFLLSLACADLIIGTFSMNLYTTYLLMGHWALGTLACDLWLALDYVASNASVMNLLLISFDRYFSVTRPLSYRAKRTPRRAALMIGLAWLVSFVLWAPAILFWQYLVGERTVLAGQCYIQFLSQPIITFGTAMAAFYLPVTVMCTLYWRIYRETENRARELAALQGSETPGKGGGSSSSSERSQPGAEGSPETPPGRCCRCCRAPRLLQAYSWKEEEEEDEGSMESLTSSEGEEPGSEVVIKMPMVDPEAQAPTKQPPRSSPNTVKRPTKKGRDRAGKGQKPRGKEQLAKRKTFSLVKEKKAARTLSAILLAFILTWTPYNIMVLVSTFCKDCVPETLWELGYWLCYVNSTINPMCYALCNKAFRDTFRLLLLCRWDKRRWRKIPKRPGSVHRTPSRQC
Assay type: functional
REPORTED PROPERTY: AC50

Below, 5 molecules whose answers are already recorded.
COCC1=C(C(=O)OC(C)OC(=O)OC(C)C)N2C(=O)[C@@H](NC(=O)/C(=N\OC)c3csc(N)n3)[C@H]2SC1 (stereo partly drawn)
> 30 µM
CC(=O)OCC(=O)[C@@]12OC3(CCCC3)O[C@@H]1C[C@H]1[C@@H]3CCC4=CC(=O)C=C[C@]4(C)[C@@]3(F)[C@@H](O)C[C@@]12C [AMCINONIDE]
> 10 µM
COc1ccc2cccc(CCNC(C)=O)c2c1
> 10 µM
CN1C(=O)CC(=O)N(c2ccccc2)c2cc(Cl)ccc21
> 10 µM
CC/C=C\C/C=C\C/C=C\CCCCCCCC(=O)O
> 30 µM

Return reported AC50. Input molecule: CC(C(=O)O)c1ccc(C(=O)c2cccs2)cc1 (stereo not drawn)
> 10 µM

Return reported AC50. Input molecule: `Cc1nc2ccc(CN(C)c3ccc(C(=O)N[C@@H](CCC(=O)O)C(=O)O)s3)cc2c(=O)[nH]1`
> 30 µM

Return reported AC50. Input molecule: `CO/N=C(\C(=O)N[C@@H]1C(=O)N2C(C(=O)[O-])=C(C[N+]3(C)CCCC3)CS[C@H]12)c1csc(N)n1`
> 300 µM

====

MEASURED ON: Adenosine receptor A2a (Homo sapiens, UniProt P29274)
Sequence (P29274 whole entry): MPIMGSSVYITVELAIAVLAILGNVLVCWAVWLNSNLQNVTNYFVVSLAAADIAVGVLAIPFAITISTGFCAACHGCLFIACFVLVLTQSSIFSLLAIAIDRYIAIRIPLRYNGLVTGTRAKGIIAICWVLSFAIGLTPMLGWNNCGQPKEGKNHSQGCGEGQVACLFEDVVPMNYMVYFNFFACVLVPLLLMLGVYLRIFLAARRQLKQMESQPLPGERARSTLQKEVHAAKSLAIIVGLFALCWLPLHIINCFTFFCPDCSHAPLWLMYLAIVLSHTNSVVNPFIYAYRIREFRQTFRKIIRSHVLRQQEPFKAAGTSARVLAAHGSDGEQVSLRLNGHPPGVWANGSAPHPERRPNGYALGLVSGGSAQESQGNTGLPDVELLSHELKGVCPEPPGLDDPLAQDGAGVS
Catalogue of molecules with associated AC50

Below, 3 molecules whose answers are already recorded.
CC(C)(N)Cc1ccc(Cl)cc1
> 30 µM
CC(=O)OCC(=O)[C@@]12OC3(CCCC3)O[C@@H]1C[C@H]1[C@@H]3CCC4=CC(=O)C=C[C@]4(C)[C@@]3(F)[C@@H](O)C[C@@]12C [AMCINONIDE]
> 10 µM
CN1C(=O)CC(C)(c2ccccc2)C1=O (configuration not stated) [METHSUXIMIDE]
> 10 µM

Return reported AC50. Input molecule: `CN[C@@H]1[C@H](O)[C@H](NC)[C@H]2O[C@@]3(O)C(=O)C[C@@H](C)O[C@H]3O[C@@H]2[C@H]1O`
> 10 µM

Return reported AC50. Input molecule: `O=C1NCCN1CCN1CCC(c2cn(-c3ccc(F)cc3)c3ccc(Cl)cc23)CC1`
> 30 µM

Return reported AC50. Input molecule: `CC(=O)c1ccc2c(c1)N(CCCN1CCN(CCO)CC1)c1ccccc1S2`
> 30 µM

Return reported AC50. Input molecule: CC(=O)N(CC(O)CO)c1c(I)c(C(=O)NCC(O)CO)c(I)c(C(=O)NCC(O)CO)c1I (configuration not stated) [IOHEXOL]
> 30 µM

Return reported AC50. Input molecule: `O=C(O)Cc1cn(-c2ccccc2)nc1-c1ccc(Cl)cc1`
> 30 µM

Return reported AC50. Input molecule: `O=P(O)(O)C(O)(Cc1cccnc1)P(=O)(O)O`
> 30 µM

Return reported AC50. Input molecule: `CC/C=C\C/C=C\C/C=C\CCCCCCCC(=O)O`
> 30 µM

Return reported AC50. Input molecule: CCNC(C)Cc1cccc(C(F)(F)F)c1 (configuration not stated)
> 30 µM

Return reported AC50. Input molecule: `CN(C/C=C/c1ccccc1)Cc1cccc2ccccc12`
> 30 µM

Return reported AC50. Input molecule: `[H]/N=C(/N)c1ccc(NCc2nc3cc(C(=O)N(CCC(=O)O)c4ccccn4)ccc3n2C)cc1`
> 30 µM

Return reported AC50. Input molecule: C#CC1(OC(N)=O)CCCCC1 [ETHINAMATE]
> 10 µM

Return reported AC50. Input molecule: `CCCC(CCC)C(=O)O[C@H]1C[C@H]2CC[C@@H](C1)[N+]2(C)C`
> 30 µM

Return reported AC50. Input molecule: `CC[C@]1(O)C[C@@H]2CN(CCc3c([nH]c4ccccc34)[C@@](C(=O)OC)(c3cc4c(cc3OC)N(C)[C@H]3[C@@](O)(C(N)=O)[C@H](O)[C@]5(CC)C=CCN6CC[C@]43[C@@H]65)C2)C1`
> 30 µM

Return reported AC50. Input molecule: `NC(=O)c1ncn([C@@H]2O[C@H](CO)[C@@H](O)[C@H]2O)c1O`
> 30 µM
